Would you mind telling me the reported growth inhibition of each entry?
# PROTOCOL_DETAILS: NCI Yeast Anticancer Drug Screen. Data for the mec2-1 strain (AID 157)
# CONDITION_LABEL: S. cerevisiae mec2-1 strain, at 50.0 µM, hits give high values
The panel holds about 79,000 compounds, 15% with a hit somewhere; the sample as a whole holds those more often. Active and inactive are the calls of the source. No stated cut-off is given here; in the data, active means growth inhibition above about 70%; inactive means the rest.

- MOLECULE: "O=c1cccccc1[O-].O=c1cccccc1[O-].O=c1cccccc1[O-].[Eu+3]"
  growth inhibition: "91.7% (active)"

// each molecule listed below needs its growth inhibition
1. O=C(Cc1ccccc1)NNc1nc(NNC(=O)c2ccncc2)nc(Nc2ccc(Cl)cc2)n1
2. Fc1ccc(Nc2ccc3ccccc3c2)cc1
3. Cc1ccc(S(=O)(=O)NC(=O)C2C(=O)CC3(CCCCC3)CC2=O)cc1
4. CC(C)C(=O)CC(Sc1ccc(N)cc1)c1ccccc1 (stereo not drawn)
5. Cc1c2cc[n+](CCO)cc2c(C)c2c1[nH]c1ccc(O)cc12

1. 48.2% (inactive)
2. 90.2% (active)
3. 30.1% (inactive)
4. 36.5% (inactive)
5. 36.7% (inactive)

// each molecule listed below needs its growth inhibition
1. C[C@H](CCC1=NC(C)(C)CO1)C1CCC2[C@@H]3C(O)C[C@@H]4CC(O)CC[C@]4(C)C3CC[C@@]21C (stereo partly drawn)
2. CC(C)=CCc1c2c(c(O)c3c(=O)c(-c4ccc(O)c(O)c4)coc13)C=CC(C)(C)O2
3. CCC[CH2][Sn]([CH2]CCC)([CH2]CCC)/[C](=C/[Si](C)(C)c1ccccc1)c1ccc2c(c1)OCO2
4. Cc1cc(O)c(C(C)C)cc1SC#N
5. COc1ccc(N=c2cc(-c3ccccc3)oc3ccccc23)cc1

1. 99.8% (active)
2. 88% (active)
3. 93.7% (active)
4. 91.1% (active)
5. 27.6% (inactive)

// each molecule listed below needs its growth inhibition
1. CCCCCCCCSC1=C(Cl)C(=O)C(OC)=C(OC)C1=O
2. CN(C)CCNC(=Cc1ccc2ccccc2[n+]1C)NCCN(C)C

1. 54.1% (inactive)
2. 19.6% (inactive)

// each molecule listed below needs its growth inhibition
1. O=C1c2cccc3cccc(c23)C(=O)N1CCNCCN1C(=O)c2cccc3cccc(c23)C1=O
2. CCCN=Cc1cc(Cc2ccc(O)c(C=NCCC)c2)ccc1O
3. NCCCSc1ccccc1
4. CCOC(=O)/C(=C/c1cccc(Cl)c1)N(CC)CC
5. CN(C)/C(=N/C(=S)Nc1ccccc1)SCc1ccccc1
6. Cc1cc2nc3ccccc3n2c2ccccc12

1. 26.4% (inactive)
2. 91.5% (active)
3. 14.7% (inactive)
4. 78.5% (active)
5. 99.7% (active)
6. 56.1% (inactive)

// each molecule listed below needs its growth inhibition
1. O=C1C=C(Br)C(=O)c2ccccc21
2. C[n+]1c(/C=C/c2ccc(/C=N/NC(=O)c3ccc(C(=O)N/N=C/c4ccc(/C=C/c5cn6ccccc6[n+]5C)cc4)cc3)cc2)cn2ccccc21
3. O=S(=O)(NNc1ccccc1)c1ccccc1
4. CC(C)OC(=O)NNc1c(Cl)cc(Cl)cc1Cl
5. O=C1C(=O)N(c2ccccc2)[C@@]2(c3ccccc3)C(=Nc3ccccc3)OC(c3ccccc3)=C12
6. CCN(CC)CCCNc1ccc([N+](=O)[O-])c2nc3ccc(OC)cc3c(NCCCN(CC)CC)c12
7. CCCCCCCN1C(=O)c2ccccc2C1=O
8. O=c1c2ccccc2nc(-c2cccc([N+](=O)[O-])c2)n1O

99.2% (active)
90.8% (active)
19.1% (inactive)
3.15% (inactive)
10.5% (inactive)
5.05% (inactive)
53.2% (inactive)
97.7% (active)

// each molecule listed below needs its growth inhibition
1. COc1cc([N+](=O)[O-])c2ncccc2c1Br
2. CC(=O)/C=C/c1cccc([N+](=O)[O-])c1
3. NNc1ccccc1-c1nc2ccccc2[nH]1
4. O=C1Oc2ccccc2C(=O)/C1=C/N1C(=O)N/C(=C\c2ccccc2Br)C1=O

9.05% (inactive)
51% (inactive)
48.4% (inactive)
56.1% (inactive)

// each molecule listed below needs its growth inhibition
1. CCN(CC)CCNc1ccc2nc(C)n3c4ccc(OC)cc4c(=O)c1c23
2. O=[N+]([O-])c1cccc2nc3ccccc3c(NCCCN3CCCCC3)c12

1. 22.8% (inactive)
2. 98.2% (active)
